assay: Stability in buffer at various pH values; assay type: physicochemical; conditions: pH 4, 37° C., 4 h
Where a name gives a salt, the structure may show the parent alone.
metric: % test substance after 4 h [F(t = 4 h) × 100/F(t = 0 h)]

INSERT INTO results (molecule, meas_value) VALUES
  ('N#Cc1c(N)nc(SCc2csc(-c3ccc(Cl)cc3)n2)c(C#N)c1-c1ccc(OCCOC(=O)CC[C@H](NC(=O)CCC(=O)O)C(=O)O)cc1 [Example 9]', '100%'),
  ('N#Cc1c(N)nc(SCc2csc(-c3ccc(Cl)cc3)n2)c(C#N)c1-c1ccc(OCCOC(=O)[C@@H](N)CCC(=O)NCCN)cc1 [Example 7, dihydrochloride]', '100%'),
  ('C[C@@H](NC(=O)[C@@H](N)CCCCN)C(=O)OCCOc1ccc(-c2c(C#N)c(N)nc(SCc3csc(-c4ccc(Cl)cc4)n3)c2C#N)cc1 [Example 12, dihydrochloride]', '99%');

Recorded values, source patent US8957017B2.
